- assayNotes: qHTS Screen of the MIPE 4.0 Collection Against Ewings Sarcoma (TC71) (AID 1259253); note: potency is the fitted concentration of half-maximal effect; nearly all actives have a fitted effect of over 40% in size
- conditions: TC71 Ewing sarcoma viability, CellTiter-Glo, 48 h; series mostly up to 45.8 µM
Records with an inconclusive call do not appear. Active and inactive are the calls of the source. Calls come from the whole dose curve; as a rule, active = well fitted inhibition curve with a large enough effect; inconclusive = small, poorly fitted or top-dose-only effect; inactive = no such curve, though single readings can be large or run the other way.
measuredEndpoint: Potency

Solved cases (4 shown):
{"smilesRepresentation": "CC[C@H]1CN2CCc3cc(OC)c(OC)cc3[C@H]2C[C@@H]1C[C@@H]1NCCc2cc(OC)c(OC)cc21", "Potency": "59 nM (active)"}
{"smilesRepresentation": "CC[C@H](CO)Nc1nc(NCc2ccccc2)c2ncn(C(C)C)c2n1", "Potency": "20900 nM (active)"}
{"smilesRepresentation": "Cc1ccc(C(=O)Nc2ccc(CN3CCN(C)CC3)c(C(F)(F)F)c2)cc1C#Cc1cnc2cccnn12", "Potency": "4690 nM (active)"}
{"smilesRepresentation": "CCN1CCN(Cc2ccc(-c3cc4c(N[C@H](C)c5ccccc5)ncnc4[nH]3)cc2)CC1", "Potency": "5.3 nM (active)"}

Asked: Please look up its Potency: N#CCNC(=O)c1ccc(-c2ccnc(Nc3ccc(N4CCOCC4)cc3)n2)cc1
Given back: 4690 nM (active)

Asked: Also Cc1c(Cn2c(C)nc3c(C(=O)O)cc(N4CCOCC4)cc32)cccc1C(F)(F)F ?
Given back: 10500 nM (active)

Asked: Queued: CC(C)c1ccccc1Cc1cc(C(=O)Nc2ccc(S(=O)(=O)c3ccccc3C(C)(C)C)cc2)c(O)c(O)c1O
Given back: 7430 nM (active)

Asked: Can you check CCCCc1nc2cc(C=CC(=O)NO)ccc2n1CCN(CC)CC next?
Given back: 372 nM (active)

Asked: O=C(C=Cc1cccc(S(=O)(=O)Nc2ccccc2)c1)NO , same question.
Given back: 2700 nM (active)

* * *

Let's look at some compounds and their measured Potency.
- assayNotes: qHTS of pediatric cancer cell lines to identify multiple opportunities for drug repurposing: Primary screen for A673 cells (AID 1347092); note: potency is the fitted concentration of half-maximal effect; nearly all actives have a fitted effect of over 45% in size
- conditions: A673 Ewing sarcoma viability, CellTiter-Glo ATP luminescence, 48 h; series mostly up to 46 µM
Results filed as inconclusive are left out. The source made the active and inactive calls. Calls come from the whole dose curve; as a rule, active = well fitted cell-killing curve with a large enough effect; inconclusive = small, poorly fitted or top-dose-only effect; inactive = no such curve, though single readings can be large or run the other way.

{"smilesRepresentation": "Nc1nc(Nc2ccc(S(N)(=O)=O)cc2)nn1C(=O)c1c(F)cccc1F", "readoutValue": "2960 nM (active)"}

Asked: GET /values?readout=Potency&item= CC(C)(C)NC(=O)[C@H]1CN(Cc2cccnc2)CCN1C[C@@H](O)C[C@@H](Cc1ccccc1)C(=O)N[C@H]1c2ccccc2C[C@H]1O
Given back: 743 nM (active)

Asked: Moving on to COc1c(OCCCN2CCOCC2)ccc2c3n(c(=NC(=O)c4cnc(N)nc4)nc12)CCN3
Given back: 162 nM (active)

Asked: Now consider Cn1cc(-c2[nH]c3cc(NC(=O)[C@H](N)C4CCCCC4)cc4c3c2C=NNC4=O)cn1 and answer again.
Given back: 5900 nM (active)

* * *

- assayNotes: Quantitative High-Throughput drug screen in 47 multiple myeloma cell lines against the NCATS MIPE library collection: EJM_DSMZ cell viability assay (AID 1918926; note: nearly all actives have a fitted effect of over 30% in size; note: potency is the fitted concentration of half-maximal effect)
- conditions: EJM myeloma cell viability, CellTiter-Glo ATP, 48 h; series mostly up to 45.8 µM
Records with an inconclusive call do not appear. Active and inactive are the calls of the source. The call rests on the fitted dose curve; in most records, active means well fitted cell-killing curve with a large enough effect; inconclusive means small, poorly fitted or top-dose-only effect, or effect the other way; inactive means no such curve, though single readings can be large or run the other way.
measuredEndpoint: Potency

{"compound": "O=C(O)CO.[NH2-].[NH2-].[Pt+2]", "Potency": "inactive"}
{"compound": "CC(C)(O)c1cc2nc(-c3cnc(N)nc3)nc(N3CCOCC3)c2s1", "Potency": "0.743 µM (active)"}
{"compound": "Clc1cccc(-c2nnnn2Cc2cccnc2)c1Cl", "Potency": "inactive"}
{"compound": "COCCOc1ccc2c(c1)ncn2-c1ccc2cccc(N3CCC(N)CC3)c2n1", "Potency": "5.9 µM (active)"}
{"compound": "Nc1ccc(C(=O)c2cc3c(ccc4ccccc43)[nH]2)cc1", "Potency": "4.18 µM (active)"}
{"compound": "Cc1c(CN2CCN(S(C)(=O)=O)CC2)sc2c(N3CCOCC3)nc(-c3cnc(N)nc3)nc12", "Potency": "0.105 µM (active)"}
{"compound": "C=CC(=O)Nc1cccc(Oc2nc(Nc3ccc(N4CCN(C)CC4)cc3)ncc2Cl)c1", "Potency": "23.5 µM (active)"}
{"compound": "Cn1cncc1[C@@](N)(c1ccc(Cl)cc1)c1ccc2c(c1)c(-c1cccc(Cl)c1)cc(=O)n2C", "Potency": "14.8 µM (active)"}

Now consider the entry below.
Asked: Which Potency is reported for this compound? COc1cc(C)c(Sc2cnc(NC(=O)c3ccc(CNC(C)C(C)C)cc3)s2)cc1C(=O)N1CCN(C(C)=O)CC1 (centres undefined)
Given back: 16.6 µM (active)

* * *

- assayNotes: Quantitative High-Throughput drug screen in 47 multiple myeloma cell lines against the NCATS MIPE library collection: AMO1_DSMZ cell viability assay (AID 1918927; note: nearly all actives have a fitted effect of over 30% in size)
- conditions: AMO1 myeloma cells viability, CellTiter-Glo ATP luminescence, 48 h; series mostly up to 45.8 µM
Records with an inconclusive call do not appear. Activity calls are given as the source filed them. The call rests on the fitted dose curve; in most records, active means well fitted cell-killing curve with a large enough effect; inconclusive means small, poorly fitted or top-dose-only effect, or effect the other way; inactive means no such curve, though single readings can be large or run the other way.
// one of true (1) = active, false (0) = inactive, no free text

Reference set, count: 2
{"smilesRepresentation": "Cc1cc(Nc2nc(N[C@@H](C)c3ccc(F)cc3)c(C#N)cc2F)n[nH]1", "group": "true (1)"}
{"smilesRepresentation": "COc1ccc2c(OCc3nnc4ccc(-c5ccccc5)nn34)ccnc2c1", "group": "false (0)"}

Asked: Dear colleague, could you share the recorded outcome for CC(C)(O)CCc1ccc(OCc2cc(-c3cccc(OC(F)F)c3)c3ncccc3c2)cc1 when you have a moment?
Given back: false (0)

Asked: Also need CCCCOc1c(C(=O)c2c(F)cc(C)cc2F)cnc2n[nH]cc12 , thanks.
Given back: true (1)

Asked: Also, Cc1nc2ccc(CN(C)c3ccc(C(=O)N[C@@H](CCC(=O)O)C(=O)O)s3)cc2c(=O)[nH]1 please.
Given back: true (1)

Asked: Queued: CN1CC[C@@H](c2c(O)cc(O)c3c(=O)cc(-c4ccccc4Cl)oc23)[C@@H](O)C1
Given back: true (1)

Asked: What do you have for COc1cc(Nc2ncc(F)c(Nc3ccc4c(n3)N(COP(=O)(O)O)C(=O)C(C)(C)O4)n2)cc(OC)c1OC ?
Given back: true (1)

Asked: Moving on to the next molecule: COc1cc2c(Oc3ccc(NC(=O)C4(C(=O)Nc5ccc(F)cc5)CC4)cc3F)ccnc2cc1OCCCN1CCOCC1
Given back: true (1)

Asked: Next record, please: Cc1[nH]nc2ccc(-c3cncc(OC[C@@H](N)Cc4ccccc4)c3)cc12
Given back: true (1)

* * *

- tgt: Cytochrome P450 2D6 (Homo sapiens) (UniProt P10635)
- Sequence (P10635 whole entry, looked up): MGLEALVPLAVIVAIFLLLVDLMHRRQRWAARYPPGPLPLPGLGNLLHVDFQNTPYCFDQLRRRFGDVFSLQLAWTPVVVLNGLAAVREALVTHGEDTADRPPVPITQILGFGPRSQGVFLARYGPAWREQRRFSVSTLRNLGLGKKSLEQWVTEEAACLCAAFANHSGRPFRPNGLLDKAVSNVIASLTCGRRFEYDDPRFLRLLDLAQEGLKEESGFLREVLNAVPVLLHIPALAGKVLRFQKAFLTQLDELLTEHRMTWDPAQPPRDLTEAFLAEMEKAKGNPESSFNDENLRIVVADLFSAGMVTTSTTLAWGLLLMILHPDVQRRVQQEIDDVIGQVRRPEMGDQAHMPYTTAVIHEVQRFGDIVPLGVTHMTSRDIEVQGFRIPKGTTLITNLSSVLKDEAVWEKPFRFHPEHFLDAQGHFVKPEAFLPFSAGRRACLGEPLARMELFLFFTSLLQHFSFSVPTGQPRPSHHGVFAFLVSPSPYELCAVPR
- assayNotes: Cytochrome P450 family 2 subfamily D member 6 (CYP2D6) small molecule antagonists: luciferase biochemical (cell-free) qHTS assay (AID 1645840); note: nearly all actives have a fitted effect of over 55% in size
- conditions: P450-Glo CYP2D6 enzyme, luciferin luminescence, 1 h; series mostly up to 57.4 µM
Inconclusive results are not listed. Active and inactive are the calls of the source. The call rests on the fitted dose curve; in most records, active means well fitted inhibition curve with a large enough effect in the repeat runs; inconclusive means weak or mixed curves; inactive means flat fitted curve, though single readings scatter.
A correct response names exactly one class from active, inactive

Some solved cases for reference:
{"smilesRepresentation": "CN(C)c1nc(Cc2ccc(NC(=O)c3ccc4ccccc4c3)cc2)nc(Cl)c1CC(=O)O", "tgt": "Cytochrome P450 2D6 (Homo sapiens) (UniProt P10635)", "group": "inactive"}
{"smilesRepresentation": "CC(C)c1noc(N2CCC(COc3ccc(-c4ccc(S(C)(=O)=O)cc4)nc3)CC2)n1", "tgt": "Cytochrome P450 2D6 (Homo sapiens) (UniProt P10635)", "group": "inactive"}
{"smilesRepresentation": "COc1c(OCCCN2CCOCC2)ccc2c3n(c(=NC(=O)c4cnc(N)nc4)nc12)CCN3", "tgt": "Cytochrome P450 2D6 (Homo sapiens) (UniProt P10635)", "group": "inactive"}
{"smilesRepresentation": "Nc1nc(Nc2ccc(S(N)(=O)=O)cc2)nn1C(=O)c1c(F)cccc1F", "tgt": "Cytochrome P450 2D6 (Homo sapiens) (UniProt P10635)", "group": "inactive"}
{"smilesRepresentation": "Nc1ccn([C@@H]2CS[C@H](CO)O2)c(=O)n1", "tgt": "Cytochrome P450 2D6 (Homo sapiens) (UniProt P10635)", "group": "inactive"}

Asked: Test call for this compound, please: CNC(=O)c1nn(C)c2c1C(C)(C)Cc1cnc(Nc3ccc(N4CCN(C)CC4)cc3)nc1-2
Given back: inactive

Asked: Moving on to COc1cc(Nc2ncc(F)c(Nc3ccc4c(n3)N(COP(=O)(O)O)C(=O)C(C)(C)O4)n2)cc(OC)c1OC
Given back: inactive

Asked: Could you do the same for CC(=O)c1c(C)c2cnc(Nc3ccc(N4CCNCC4)cn3)nc2n(C2CCCC2)c1=O , please?
Given back: inactive

Asked: What would you report for Nc1nccc(Oc2ccc(NC(=O)c3c[nH]cc(-c4ccc(F)cc4)c3=O)cc2F)c1Cl ?
Given back: active

Where these numbers come from: PubChem BioAssay (NCATS)
